system: green foxtail (Setaria viridis L.); assay: Test Example 2: soil application on the day after sowing, green foxtail; format: in vivo; settings: 250 g/ha active ingredient, observed 19th to 28th day after application

- molecule: "Cc1c(C(=O)c2cnn(C)c2O)ccc(S(C)(=O)=O)c1COC(C)C"
  Growth inhibition rate (%) Green foxtail: 60
- molecule: "COCCOc1c(S(C)(=O)=O)ccc(C(=O)c2c(C)nn(C)c2O)c1C"
  Growth inhibition rate (%) Green foxtail: 60
- molecule: "COCC(C)Oc1c(S(C)(=O)=O)ccc(C(=O)c2cnn(C)c2O)c1C (stereo not drawn)"
  Growth inhibition rate (%) Green foxtail: 10
- molecule: "Cc1c(C(=O)c2cnn(C)c2O)ccc(S(C)(=O)=O)c1OC(C)C"
  Growth inhibition rate (%) Green foxtail: 30
- molecule: "Cc1c(C(=O)c2cnn(C)c2O)ccc(S(C)(=O)=O)c1COCC(F)(F)F"
  Growth inhibition rate (%) Green foxtail: 100
- molecule: "CCc1nn(C)c(O)c1C(=O)c1ccc(S(C)(=O)=O)c(OCCOC)c1C"
  Growth inhibition rate (%) Green foxtail: 60
- molecule: "COC(=O)Cc1c(S(C)(=O)=O)ccc(C(=O)c2cnn(C)c2O)c1C"
  Growth inhibition rate (%) Green foxtail: 50
- molecule: "CCn1ncc(C(=O)c2ccc(S(C)(=O)=O)c(OCCOC)c2C)c1O"
  Growth inhibition rate (%) Green foxtail: 100
- molecule: "COCCOc1c(S(C)(=O)=O)ccc(C(=O)c2cnn(C(C)C)c2O)c1C"
  Growth inhibition rate (%) Green foxtail: 100
- molecule: "COC(C)COc1c(S(C)(=O)=O)ccc(C(=O)c2cnn(C)c2O)c1C (stereo not drawn)"
  Growth inhibition rate (%) Green foxtail: 100
- molecule: "CCCOC(=O)c1c(S(C)(=O)=O)ccc(C(=O)c2cnn(CC)c2O)c1Cl"
  Growth inhibition rate (%) Green foxtail: 30
- molecule: "COCCOc1c(S(C)(=O)=O)ccc(C(=O)c2c(C)nn(C(C)C)c2O)c1C"
  Growth inhibition rate (%) Green foxtail: 100

* * *

system: crabgrass (Digitaria sanquinalis L.); assay: Test Example 2: soil application on the day after sowing, crabgrass; assay type: in vivo; settings: 250 g/ha active ingredient, observed 19th to 28th day after application
The following compounds are listed with their measured Growth inhibition rate (%) Crabgrass values.
reported.property: Growth inhibition rate (%) Crabgrass

- compound: "CCn1ncc(C(=O)c2ccc(S(C)(=O)=O)c(OCCOC)c2C)c1O"
  reported.property: "Growth inhibition rate (%) Crabgrass"
  units: "%"
  reported: 100
- compound: "CCc1nn(C)c(O)c1C(=O)c1ccc(S(C)(=O)=O)c(OCCOC)c1C"
  reported.property: "Growth inhibition rate (%) Crabgrass"
  units: "%"
  reported: 95
- compound: "CCCOC(=O)c1c(S(C)(=O)=O)ccc(C(=O)c2cnn(CC)c2O)c1Cl"
  reported.property: "Growth inhibition rate (%) Crabgrass"
  units: "%"
  reported: 95
- compound: "COCC(C)Oc1c(S(C)(=O)=O)ccc(C(=O)c2cnn(C)c2O)c1C (stereo not drawn)"
  reported.property: "Growth inhibition rate (%) Crabgrass"
  units: "%"
  reported: 98
- compound: "Cc1c(C(=O)c2cnn(C)c2O)ccc(S(C)(=O)=O)c1OC(C)C"
  reported.property: "Growth inhibition rate (%) Crabgrass"
  units: "%"
  reported: 90
- compound: "COC(C)COc1c(S(C)(=O)=O)ccc(C(=O)c2cnn(C)c2O)c1C (stereo not drawn)"
  reported.property: "Growth inhibition rate (%) Crabgrass"
  units: "%"
  reported: 100
- compound: "Cc1c(C(=O)c2cnn(C)c2O)ccc(S(C)(=O)=O)c1COC(C)C"
  reported.property: "Growth inhibition rate (%) Crabgrass"
  units: "%"
  reported: 100
- compound: "COCCOc1c(S(C)(=O)=O)ccc(C(=O)c2cnn(C(C)C)c2O)c1C"
  reported.property: "Growth inhibition rate (%) Crabgrass"
  units: "%"
  reported: 100
- compound: "COC(=O)Cc1c(S(C)(=O)=O)ccc(C(=O)c2cnn(C)c2O)c1C"
  reported.property: "Growth inhibition rate (%) Crabgrass"
  units: "%"
  reported: 95
- compound: "COCCOc1c(S(C)(=O)=O)ccc(C(=O)c2c(C)nn(C)c2O)c1C"
  reported.property: "Growth inhibition rate (%) Crabgrass"
  units: "%"
  reported: 100
- compound: "COCCOc1c(S(C)(=O)=O)ccc(C(=O)c2c(C)nn(C(C)C)c2O)c1C"
  reported.property: "Growth inhibition rate (%) Crabgrass"
  units: "%"
  reported: 100
- compound: "Cc1c(C(=O)c2cnn(C)c2O)ccc(S(C)(=O)=O)c1COCC(F)(F)F"
  reported.property: "Growth inhibition rate (%) Crabgrass"
  units: "%"
  reported: 100
